Ref: ChEMBL document CHEMBL3751668

- Test system: Proto-oncogene tyrosine-protein kinase receptor Ret (Homo sapiens), P07949 [C634W]
- Sequence (P07949 whole entry C634W): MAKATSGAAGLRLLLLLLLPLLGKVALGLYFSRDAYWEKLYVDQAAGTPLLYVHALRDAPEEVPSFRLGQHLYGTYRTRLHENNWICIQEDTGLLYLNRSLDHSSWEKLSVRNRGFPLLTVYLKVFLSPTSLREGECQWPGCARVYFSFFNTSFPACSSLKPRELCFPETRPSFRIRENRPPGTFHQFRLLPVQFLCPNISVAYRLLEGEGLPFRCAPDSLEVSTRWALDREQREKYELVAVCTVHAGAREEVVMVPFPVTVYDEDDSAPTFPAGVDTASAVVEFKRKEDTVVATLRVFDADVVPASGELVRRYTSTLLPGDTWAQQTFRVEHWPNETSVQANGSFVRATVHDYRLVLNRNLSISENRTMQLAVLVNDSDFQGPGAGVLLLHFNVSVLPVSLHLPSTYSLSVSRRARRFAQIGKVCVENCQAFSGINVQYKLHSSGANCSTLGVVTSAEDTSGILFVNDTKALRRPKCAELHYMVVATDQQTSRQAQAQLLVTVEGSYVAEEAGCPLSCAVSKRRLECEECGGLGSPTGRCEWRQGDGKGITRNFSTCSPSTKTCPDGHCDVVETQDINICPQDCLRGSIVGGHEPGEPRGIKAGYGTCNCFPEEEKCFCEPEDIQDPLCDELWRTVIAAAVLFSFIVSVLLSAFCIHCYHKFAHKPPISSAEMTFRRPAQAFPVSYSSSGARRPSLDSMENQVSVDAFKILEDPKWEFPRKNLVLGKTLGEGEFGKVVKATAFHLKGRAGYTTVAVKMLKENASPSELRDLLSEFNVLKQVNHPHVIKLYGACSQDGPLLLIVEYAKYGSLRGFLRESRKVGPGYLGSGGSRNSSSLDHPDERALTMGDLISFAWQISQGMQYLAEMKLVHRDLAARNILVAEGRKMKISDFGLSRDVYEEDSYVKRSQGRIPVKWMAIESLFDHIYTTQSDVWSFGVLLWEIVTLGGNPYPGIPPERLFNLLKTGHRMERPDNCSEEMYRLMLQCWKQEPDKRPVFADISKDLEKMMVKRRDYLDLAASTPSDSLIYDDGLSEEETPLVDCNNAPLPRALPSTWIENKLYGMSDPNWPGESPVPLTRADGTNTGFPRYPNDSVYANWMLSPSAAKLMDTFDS
- condition.summary: TT
- Description: Inhibition of RET C634W mutant in human TT cells assessed as cell growth inhibition after 10 days by MTT assay
Overview of reported GI50 across a group of compounds:
Hi! Could you send only the number? It should be in µM, unit omitted.

{"compound": "CC(C)(O)Cn1nc(-c2cc(C3CC3)on2)c2c(N)ncnc21", "reading.unit": "µM", "GI50": 4.25}

Task item: Look at this compound and give its reported GI50. COc1cc2nccc(Oc3ccc(NC(=O)C4(C(=O)Nc5ccc(F)cc5)CC4)cc3)c2cc1OC [CABOZANTINIB]
Reply: 0.12

Task item: Look at this compound and give its reported GI50. CC(C)n1nc(-c2cc(C3CC3)on2)c2c(N)ncnc21
Reply: 0.24

Task item: Look at this compound and give its reported GI50. Nc1ncnc2c1c(-c1cc(C3CC3)on1)nn2C1CCOCC1
Reply: 0.94
